tested on: Diabrotica balteata; test: Transovarial effects on Diabrotica balteata adults fed on sprayed bean plants (% egg mortality); type: in vivo; conditions: Diabrotica balteata; 25 ppm; egg laying period 3; read-out: % egg mortality: on egg laying period 3
endpoint: mortality at 25 ppm (%)

compound=O=C(NC(=O)c1c(F)cccc1F)Nc1ccc(Cl)cc1 targetentity="Diabrotica balteata" endpoint="mortality at 25 ppm" measurednumber=5
compound="CCc1ccc(C(=O)NN(C(=O)c2cc(C)cc(C)c2)C(C)(C)C)cc1 [Mimic, Tebufenozide]" targetentity="Diabrotica balteata" endpoint="mortality at 25 ppm" measurednumber=9
compound="O=C(NC(=O)c1c(F)cccc1F)Nc1ccc(OC(F)(F)C(F)OC(F)(F)F)c(Cl)c1 (single isomer, unassigned; (+))" targetentity="Diabrotica balteata" endpoint="mortality at 25 ppm" measurednumber=100
compound=O=C(NC(=O)c1c(F)cccc1F)Nc1cc(Cl)c(F)c(Cl)c1F targetentity="Diabrotica balteata" endpoint="mortality at 25 ppm" measurednumber=34
compound="COc1cccc(C(=O)NN(C(=O)c2cc(C)cc(C)c2)C(C)(C)C)c1C [Intrepid, Methoxyfenozide]" targetentity="Diabrotica balteata" endpoint="mortality at 25 ppm" measurednumber=7
compound="O=C(NC(=O)c1c(F)cccc1F)Nc1cc(Cl)c(OC(F)(F)C(F)C(F)(F)F)cc1Cl (centres unmarked)" targetentity="Diabrotica balteata" endpoint="mortality at 25 ppm" measurednumber=85
compound=O=C(NC(=O)c1c(F)cccc1F)Nc1ccc(Oc2ccc(C(F)(F)F)cc2Cl)cc1F targetentity="Diabrotica balteata" endpoint="mortality at 25 ppm" measurednumber=98
compound=O=C(NC(=O)c1c(F)cccc1F)Nc1cc(Cl)c(OC(F)(F)C(F)F)c(Cl)c1 targetentity="Diabrotica balteata" endpoint="mortality at 25 ppm" measurednumber=15
